Recorded log10 GI50, one value per entry.
tested on: UACC-257; assay: Growth inhibition of human UACC257 cells after 48 hrs by sulforhodamine B assay; assay type: functional; details: UACC-257, 48 h
A difference of one corresponds to tenfold GI50; all values are log10 with GI50 in µM.

Example results:
1. CC(=O)/C(=C\c1c(-c2ccccc2)[nH]c2ccccc12)S(C)(=O)=O; 1.64
2. N#CC(C#N)=Cc1c(-c2ccccc2)[nH]c2ccccc12; 1.45
3. COc1ccc(-c2[nH]c3ccccc3c2/C=C(\C#N)S(=O)(=O)c2ccccc2)cc1; 1.03

Asked: Tell me the measured log10 GI50 of "N#C/C(=C\c1c(-c2ccccc2)[nH]c2ccccc12)S(=O)(=O)c1ccccc1" , please.
Given back: 1.26

Asked: // same read-out, input: "COc1ccc2[nH]c(-c3ccccc3)c(C=C(C#N)C#N)c2c1"
Given back: 1.48

Asked: Next entry: "COC(=O)/C(=C\c1c(-c2ccccc2)[nH]c2ccccc12)S(C)(=O)=O"
Given back: 1.05

Asked: Now consider "COC(=O)/C(=C\c1c(C)[nH]c2ccccc12)S(=O)(=O)c1ccccc1" and answer again.
Given back: 0.85

Asked: Queued: "COc1ccc2[nH]c(-c3ccccc3)c(/C=C(\C#N)S(=O)(=O)c3ccccc3)c2c1"
Given back: 0.69

Asked: // same read-out, input: "COc1ccc(-c2[nH]c3ccccc3c2C=C(C#N)C#N)cc1"
Given back: -0.37

Asked: Please answer likewise for "CC(=O)/C(=C\c1c(-c2ccccc2)[nH]c2ccccc12)S(=O)(=O)c1ccccc1"
Given back: 0.34
